For each entry below, report its KM value.
B1: glmS ribozyme (parent)
chain: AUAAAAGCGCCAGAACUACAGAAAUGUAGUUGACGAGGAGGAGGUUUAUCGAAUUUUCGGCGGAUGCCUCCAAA

- Variants of: B1
- assay.protocol: KM; higher = weaker cofactor use; RNA array
- experimental.context: with glucosamine-6-phosphate

So, C16G G32C ? Its KM was 4550 µM

KM measured on A14U U47C = 1430 µM

Entry G29U C68U ; KM = 1710 µM

What the record says about A14C G26A : KM is 1030 µM

Field KM (entry G41C U46A ) reads 3110 µM

// A14C C16U : KM value = 922 µM

So for G32A U56C , the logged KM turned out to be 2950 µM

KM for A48U A64G is 5500 µM

Measured KM of C11U G29A : 4190 µM

Data point: G40A U54C ; KM = 908 µM

Looking up A15G G44U , I found its KM recorded as 1550 µM
